- EXPERIMENTAL SYSTEM: T1, Anti-HBsAg antibody(g)
- T1 construct: also called anti-HBsAg antibodies from goats; goat IgG (HBsAg)
- ASSAY: labelled peptide on antibody immobilised on microplate; antigen HBsAg
Ends that are not written are not given here. FAM = carboxyfluorescein (FAM) fluorescent label
Reported fluorescence intensity at bottom (B) of microplate before antigen binding values for the following binders.
PARAMETER MEASURED: fluorescence intensity at bottom (B) of microplate before antigen binding

# BINDER, NUMBER
records = [
    ("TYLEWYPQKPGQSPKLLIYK (not fully specified (N-terminus), Synthetic 20-mer homologous to the FR2 region of the light chain; The label differs between experiments; also called L1 switching peptide; first peptide compound L1) [L1 peptide]", 11100),
    ("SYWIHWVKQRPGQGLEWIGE (not fully specified (N-terminus), Synthetic 20-mer homologous to the FR2 region of the heavy chain; The fluorescent label differs between experiments; also called H1 switching peptide; third peptide compound H1) [H1 peptide]", 11200),
    ("{FAM}-VYYCFQGSHVPFTK (Synthetic 14-mer homologous to the FR3 or FR4 region of the light chain; also called L2 switching peptide; second peptide compound L2) [L2 peptide]", 28000),
    ("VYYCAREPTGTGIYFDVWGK (not fully specified (N-terminus), Synthetic 20-mer homologous to the FR3 or FR4 region of the heavy chain; The label differs between experiments; also called H2 switching peptide; fourth peptide compound H2) [H2 peptide]", 29400),
]
